MIC overview
# Test system: Acinetobacter baumannii
# Method: Antimicrobial activity against Acinetobacter baumannii ATCC 15151 by Etest
# Type: functional

Compound	Assayed System	MIC, µg/mL
C[C@@H](O)[C@H]1C(=O)N2C(C(=O)O)=C(SCCNC=N)C[C@H]12 [IMIPENEM ANHYDROUS]	Acinetobacter baumannii	0.25
CC(C)(O/N=C(\C(=O)N[C@@H]1C(=O)N2C(C(=O)[O-])=C(C[n+]3ccccc3)CS[C@H]12)c1csc(N)n1)C(=O)O	Acinetobacter baumannii	4
CC1(C)S[C@@H]2[C@H](NC(=O)[C@H](N)c3ccccc3)C(=O)N2[C@H]1C(=O)O	Acinetobacter baumannii	16
CCN1CCN(C(=O)N[C@@H](C(=O)N[C@@H]2C(=O)N3[C@@H]2SC(C)(C)[C@@H]3C(=O)O)c2ccccc2)C(=O)C1=O	Acinetobacter baumannii	16
C[C@@H](O)[C@H]1C(=O)N2C(C(=O)O)=C(S[C@@H]3CN[C@H](C(=O)N(C)C)C3)[C@H](C)[C@H]12	Acinetobacter baumannii	0.25
CO/N=C(\C(=O)N[C@@H]1C(=O)N2C(C(=O)[O-])=C(C[N+]3(C)CCCC3)CS[C@H]12)c1csc(N)n1 [CEFEPIME]	Acinetobacter baumannii	4
